B1: Caulobacter ParB omega fusion; a variant is named by its letters at X, in order, B8GW30 (parent)
chain: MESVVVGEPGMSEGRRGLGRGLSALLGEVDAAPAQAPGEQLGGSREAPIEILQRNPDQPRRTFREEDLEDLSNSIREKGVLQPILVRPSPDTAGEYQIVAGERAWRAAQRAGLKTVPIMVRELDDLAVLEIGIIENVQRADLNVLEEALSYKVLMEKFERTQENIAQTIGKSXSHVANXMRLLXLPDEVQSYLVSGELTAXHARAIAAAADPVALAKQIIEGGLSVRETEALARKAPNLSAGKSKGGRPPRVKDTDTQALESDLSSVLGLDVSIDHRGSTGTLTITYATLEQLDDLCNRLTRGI

variants of: B1; experiment: one-hybrid fitness for binding NBS DNA (the Noc-binding site; scaled: cognate 1, non-cognate 0); higher = stronger binding; settings: with NBS DNA site
Over roughly 81,000 sequences, “one-hybrid fitness for binding NBS DNA” has its median near -0.1; the highest 2% begin near 0.36. Many of the other results were omitted from the sample, so the highest values are more common in it than they were.
Classify as follows. Reported one-hybrid fitness for binding NBS DNA greater than or equal to 0.4: true (1). Reported one-hybrid fitness for binding NBS DNA below: false (0).

Example results:
Exercise: Dear colleague, could you confirm whether QCPT has one-hybrid fitness for binding NBS DNA at or above 0.4?
Solution: false (0)

Exercise: Exam item: decide whether the reported one-hybrid fitness for binding NBS DNA for TPKR is at least 0.4.
Solution: false (0)

Exercise: Is the recorded value of one-hybrid fitness for binding NBS DNA equal to or greater than 0.4 for this variant? QHNS
Solution: true (1)

Exercise: Hi team, for QHNN , is the recorded one-hybrid fitness for binding NBS DNA at or above 0.4?
Solution: false (0)

Exercise: I'd appreciate it if you could say whether TTSQ has one-hybrid fitness for binding NBS DNA at least equal to 0.4.
Solution: false (0)

More entries:
Exercise: Form field: one-hybrid fitness for binding NBS DNA at least 0.4? Entry: QTPH
Solution: false (0)

Exercise: Record QSDS ; criterion: one-hybrid fitness for binding NBS DNA no lower than 0.4. Met?
Solution: false (0)

Exercise: // inclusive: one-hybrid fitness for binding NBS DNA at least 0.4? input: QSNS
Solution: true (1)

Exercise: // inclusive: one-hybrid fitness for binding NBS DNA at least 0.4? input: QAIT
Solution: false (0)

Exercise: Determine whether this variant has one-hybrid fitness for binding NBS DNA no lower than 0.4: QSPT
Solution: false (0)

Exercise: Given the entry TRSQ , answer whether its one-hybrid fitness for binding NBS DNA meets or surpasses 0.4.
Solution: false (0)

Exercise: State whether the measured one-hybrid fitness for binding NBS DNA reaches 0.4, counting equality as reaching it, for QSNH
Solution: false (0)

Exercise: Kindly determine if one-hybrid fitness for binding NBS DNA recorded for AMAP is above or exactly 0.4.
Solution: false (0)

Exercise: Item TCVR with one-hybrid fitness for binding NBS DNA of 0.4 or above?
Solution: false (0)

Exercise: Hello, I need to know if QHDS has measured one-hybrid fitness for binding NBS DNA not below 0.4. Thanks!
Solution: false (0)

Exercise: Quick check, one-hybrid fitness for binding NBS DNA >= 0.4? QTPT
Solution: true (1)

Exercise: Could you verify whether the entry QLIT shows one-hybrid fitness for binding NBS DNA of no less than 0.4?
Solution: false (0)

Exercise: Exam item: decide whether the reported one-hybrid fitness for binding NBS DNA for TPVT is at least 0.4.
Solution: false (0)

Exercise: Does HAAD have a reported one-hybrid fitness for binding NBS DNA of at least 0.4?
Solution: false (0)

Exercise: Check the entry QADS : does one-hybrid fitness for binding NBS DNA equal or exceed 0.4?
Solution: false (0)

Exercise: Determine whether this variant has one-hybrid fitness for binding NBS DNA no lower than 0.4: TCVT
Solution: false (0)

Exercise: Hi, just wondering whether QTIT shows one-hybrid fitness for binding NBS DNA of 0.4 or higher.
Solution: true (1)
